- assay.remarks: self-splicing fitness, log relative to wild type (ln ratio); higher = more splicing; Tetrahymena group I intron in knt gene, E. coli kanamycin selection, DiMSum; sequences stand for … in CUCUCU…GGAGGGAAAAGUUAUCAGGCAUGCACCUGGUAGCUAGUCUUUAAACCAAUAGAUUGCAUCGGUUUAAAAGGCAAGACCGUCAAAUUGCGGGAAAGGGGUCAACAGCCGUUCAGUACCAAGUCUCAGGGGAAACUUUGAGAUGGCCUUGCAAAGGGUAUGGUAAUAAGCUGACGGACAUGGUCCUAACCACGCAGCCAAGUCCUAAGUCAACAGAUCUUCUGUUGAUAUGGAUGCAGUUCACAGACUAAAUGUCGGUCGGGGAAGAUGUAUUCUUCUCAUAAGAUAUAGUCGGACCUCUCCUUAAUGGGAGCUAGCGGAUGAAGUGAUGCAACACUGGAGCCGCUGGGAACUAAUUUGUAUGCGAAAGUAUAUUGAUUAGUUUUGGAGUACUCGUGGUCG;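 further: selection with 25 µg/mL kanamycin versus none on LB agar overnight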
- experimental.context: 30 °C
Give Met when the value for self-splicing fitness (ln) is at least -2. Give Not met when it is less.

query: Hi team, for CGUUAGCAAUAUUACGCGGC , is the recorded self-splicing fitness (ln) at or above -2?
result: Not met

query: Hi team, for GAUUAGCAAUAUUACGAUAA , is the recorded self-splicing fitness (ln) at or above -2?
result: Met

query: Hi team, for GUUUAGCAAUAUUACGCUCU , is the recorded self-splicing fitness (ln) at or above -2?
result: Met

query: Hi team, for AGGAAGCAAUAUUACGCCUC , is the recorded self-splicing fitness (ln) at or above -2?
result: Not met

query: Hi team, for UACGAGCAAUAUUACGUUUA , is the recorded self-splicing fitness (ln) at or above -2?
result: Not met

----------
Give measured self-splicing fitness (ln) for each item. Keep answers brief.
- assay.remarks: self-splicing fitness, log relative to wild type (ln ratio); higher = more splicing; Tetrahymena group I intron in knt gene, E. coli kanamycin selection, DiMSum; sequences stand for … in CUCUCU…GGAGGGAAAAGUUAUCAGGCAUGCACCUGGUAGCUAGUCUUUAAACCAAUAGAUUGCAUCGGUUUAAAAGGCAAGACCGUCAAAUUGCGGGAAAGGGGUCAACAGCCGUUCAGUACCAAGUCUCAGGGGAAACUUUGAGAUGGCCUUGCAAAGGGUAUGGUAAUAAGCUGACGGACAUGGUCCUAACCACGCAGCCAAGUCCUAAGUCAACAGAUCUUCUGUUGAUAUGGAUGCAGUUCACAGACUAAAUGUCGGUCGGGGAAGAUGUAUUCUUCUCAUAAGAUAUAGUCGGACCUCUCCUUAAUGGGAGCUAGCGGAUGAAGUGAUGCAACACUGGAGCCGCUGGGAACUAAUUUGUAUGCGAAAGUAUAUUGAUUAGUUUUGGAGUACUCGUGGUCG
- experimental.context: 37 °C
One number for each entry.

Give me self-splicing fitness (ln) for each of these sequences, listed below.
1. GGCCAGCAAUAUUACGCCUU
2. UCUAAGCAAUAUUACGUGAG
3. AUUUAGCAAUAUUACGUUCU
4. UCCUAGCAAUAUUACGGCGG
5. GAUGAGCAAUAUUACGUCAU

result:
[-0.815, 0.269, -0.0441, -2.92, -2.99]

Give me self-splicing fitness (ln) for each of these sequences, listed below.
1. CUCAAGCAAUAUUACGAGUG
2. UCGGAGCAAUAUUACGGGCA
3. AUACAGCAAUAUUACGUCUC
4. CGCUAGCAAUAUUACGAGUC
5. CGCCAGCAAUAUUACGCUCU
6. CCGUAGCAAUAUUACGAGCC
7. AUUCAGCAAUAUUACGUUAU

result:
-1.41
-0.971
-2.27
-1.01
-1.06
-1.01
0.0898

Give me self-splicing fitness (ln) for each of these sequences, listed below.
1. AGUAAGCAAUAUUACGUGAC
2. CAUUAGCAAUAUUACGGCGG
3. GUCGAGCAAUAUUACGGGUA
4. UUCGAGCAAUAUUACGGUUG
5. UAACAGCAAUAUUACGAUUG
6. ACCUAGCAAUAUUACGCUAU
7. UUCUAGCAAUAUUACGCUUG
8. CGCCAGCAAUAUUACGUAUU

result:
-2.19
0.252
-2.91
-2.47
-0.741
-1.1
-2.67
-2.71

----------
- assay.remarks: self-splicing fitness, log relative to wild type (ln ratio); higher = more splicing; Tetrahymena group I intron in knt gene, E. coli kanamycin selection, DiMSum; sequences stand for … in CUCUCU…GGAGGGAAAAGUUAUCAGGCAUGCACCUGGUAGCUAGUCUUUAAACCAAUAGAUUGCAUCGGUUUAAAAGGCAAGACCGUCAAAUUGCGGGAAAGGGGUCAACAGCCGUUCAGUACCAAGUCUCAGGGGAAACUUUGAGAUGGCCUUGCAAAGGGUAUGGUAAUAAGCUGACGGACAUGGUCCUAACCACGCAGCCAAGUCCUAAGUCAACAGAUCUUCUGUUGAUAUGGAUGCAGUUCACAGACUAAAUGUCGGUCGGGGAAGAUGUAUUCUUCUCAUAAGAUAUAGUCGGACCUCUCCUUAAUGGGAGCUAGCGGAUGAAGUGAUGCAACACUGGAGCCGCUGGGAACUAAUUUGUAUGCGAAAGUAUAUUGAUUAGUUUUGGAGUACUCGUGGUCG
- experimental.context: 37 °C
Give measured self-splicing fitness (ln) for each item. Keep answers brief.

1. AGCAAGCAAUAUUACGUUGC: -1.08

Give me self-splicing fitness (ln) for each of these sequences, listed below.
1. UGCCAGCAAUAUUACGUUUG
2. ACCGAGCAAUAUUACGUACU
3. CGUGAGCAAUAUUACGCACU
4. GCAUAGCAAUAUUACGCCUA
5. GAGUAGCAAUAUUACGUAAC
6. GAUAAGCAAUAUUACGUCCA
7. CCCGAGCAAUAUUACGGGAU

result:
-0.857
-0.966
-0.687
-1.39
-2.95
-0.215
-2.08

Give me self-splicing fitness (ln) for each of these sequences, listed below.
1. CCUGAGCAAUAUUACGAAUA
2. GCCUAGCAAUAUUACGCCCC
3. UACAAGCAAUAUUACGGCUG
4. GCCCAGCAAUAUUACGGCGA
5. AUGAAGCAAUAUUACGGAUG
6. CAUAAGCAAUAUUACGCAAU
7. GAUUAGCAAUAUUACGCCCA

result:
-1.35
0.517
0.307
-0.337
0.152
-2.59
0.123

Give me self-splicing fitness (ln) for each of these sequences, listed below.
1. CUUAAGCAAUAUUACGGAAG
2. CCUAAGCAAUAUUACGCGAG

result:
-0.419
-3.56

Give me self-splicing fitness (ln) for each of these sequences, listed below.
1. ACCGAGCAAUAUUACGGAGC
2. UCCGAGCAAUAUUACGAUGA
3. UGCAAGCAAUAUUACGCCAA
4. AAAUAGCAAUAUUACGUGCC
5. AAAUAGCAAUAUUACGCAUU
6. AUGUAGCAAUAUUACGGUUU
7. UGAAAGCAAUAUUACGUCCA

result:
-1.73
-0.0382
-0.657
-0.919
-1.52
-0.694
-0.497

----------
- assay.remarks: self-splicing fitness, log relative to wild type (ln ratio); higher = more splicing; Tetrahymena group I intron in knt gene, E. coli kanamycin selection, DiMSum; sequences stand for … in CUCUCU…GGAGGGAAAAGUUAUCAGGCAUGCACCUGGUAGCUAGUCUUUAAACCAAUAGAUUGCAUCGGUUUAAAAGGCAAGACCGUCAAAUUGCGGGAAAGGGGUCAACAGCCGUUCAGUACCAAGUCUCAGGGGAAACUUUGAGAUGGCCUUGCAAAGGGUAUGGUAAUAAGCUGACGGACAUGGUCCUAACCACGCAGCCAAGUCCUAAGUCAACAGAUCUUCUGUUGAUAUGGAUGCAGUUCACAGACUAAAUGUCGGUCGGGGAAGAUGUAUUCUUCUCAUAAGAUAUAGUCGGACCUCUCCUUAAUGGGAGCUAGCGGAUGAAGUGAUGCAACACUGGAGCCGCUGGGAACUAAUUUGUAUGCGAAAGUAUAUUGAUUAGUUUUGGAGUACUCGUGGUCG
- experimental.context: 37 °C
readout.name: self-splicing fitness (ln)
Give bare numbers.

Examples from the recorded data:
1. AUAUAGCAAUAUUACGUUCG: -0.377
2. CAUUAGCAAUAUUACGAACG: 0.736
3. CGGUAGCAAUAUUACGUGUC: -2.5
4. GCUGAGCAAUAUUACGAUCC: 0.743
5. GAGCAGCAAUAUUACGAUAU: -1.17
6. GAACAGCAAUAUUACGUGAC: -0.482
7. GUAAAGCAAUAUUACGCUUC: -1.97
8. UACCAGCAAUAUUACGCCUG: -1.21

Give me self-splicing fitness (ln) for each of these sequences, listed below.
1. AAUCAGCAAUAUUACGGCUA
2. GAGAAGCAAUAUUACGGUUU
3. GCACAGCAAUAUUACGUUUG
4. UGUAAGCAAUAUUACGCCGA
5. AUGGAGCAAUAUUACGAAGA

result:
[0.406, -1.21, -1.08, -1.63, -1.17]
